- Target Of Assay: SHP2-C SH2;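 also: peptide library displayed on the E. coli surface as eCPX fusions, selected cells deep-sequenced, score is each peptide's frequency after selection divided by its frequency in the input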
- Experimental Details: SH2 binding enrichment of the phosphorylated peptide, bacterial display (enrichment ratio); higher = better substrate or ligand; peptides without Tyr show the background
Please provide measured SH2 binding enrichment for the entries that follow.
One number for each entry.

query: Look up and report measured SH2 binding enrichment (SHP2-C SH2) for the following sequence: RKPDIYERLAS [MCM4_Y459]
result: 0.71

query: Look up and report measured SH2 binding enrichment (SHP2-C SH2) for the following sequence: KIMVIYDGACQ [VWDE_Y1035_T1032M]
result: 0.597

query: Look up and report measured SH2 binding enrichment (SHP2-C SH2) for the following sequence: PFWKLYESVKK [MKI67_Y241]
result: 0.625

query: Look up and report measured SH2 binding enrichment (SHP2-C SH2) for the following sequence: AAYNKYDQERF [CDC73_Y293_R292K]
result: 0.863

query: Look up and report measured SH2 binding enrichment (SHP2-C SH2) for the following sequence: DFLEKYFKFGC [NNMT_Y24_S29C_YF]
result: 0.763

For every item below, please supply its SH2 binding enrichment.
1. SVSNNYIQTLG [CTNND1_Y174]
2. GDEVEYMSVSF [GCLC_Y53_L55S]
3. RVLHNYLVWCV [ECEL1_Y400_R404C]
4. QEGPEYWDQQT [HLA-A_Y83_E87Q]
5. SPFAVYLFFTF [RPGRIP1_Y826_R827L_YF]
6. INQGPYENRSV [ATP6V1B1_Y462]
7. LVRAFYCERRW [CARD11_Y970_R975W]

result:
[0.803, 0.623, 0.901, 0.612, 0.729, 0.643, 0.681]

This collection of values is drawn from the supplement of paper PMC10065799.
